Tested on: DMPK
Assay Details: DMPK knockdown by transfected antisense oligonucleotides in DM1 C15 myotubes at 0.5 nM and 50 nM
Format: cell-based
Recorded Conditions: 50 nM oligonucleotide, 72 hours, qPCR, relative to vehicle control
Kindly apply the following: criterion met if Percent DMPK Reduction is less than 60%, criterion not met in every other case.

Worked examples follow.
Substance	Group
293 (GAAUGUCCGACAGUGUCUCC; chemistry not given here) [compound 293]	criterion not met
266 (AAUACUCCAUGACCAGGUAC; chemistry not given here) [compound 266]	criterion met
311 (CUCAGCCUCUGCCGCAGGGA; chemistry not given here) [compound 311]	criterion not met
310 (GCGUAGAAGGGCGUCUGCCC; chemistry not given here) [compound 310]	criterion not met
335 (UCCCCAAACUUGCUCAGCAG; chemistry not given here) [compound 335]	criterion met

Answer whether the substance 366 (UUUGGGCAGAUGGAGGGCCU; chemistry not given here) [compound 366] has Percent DMPK Reduction strictly less than 60%
criterion not met

src = patent US20230144436A1
